Molecular target: UniProt:P29466
Sequence (P29466 whole entry): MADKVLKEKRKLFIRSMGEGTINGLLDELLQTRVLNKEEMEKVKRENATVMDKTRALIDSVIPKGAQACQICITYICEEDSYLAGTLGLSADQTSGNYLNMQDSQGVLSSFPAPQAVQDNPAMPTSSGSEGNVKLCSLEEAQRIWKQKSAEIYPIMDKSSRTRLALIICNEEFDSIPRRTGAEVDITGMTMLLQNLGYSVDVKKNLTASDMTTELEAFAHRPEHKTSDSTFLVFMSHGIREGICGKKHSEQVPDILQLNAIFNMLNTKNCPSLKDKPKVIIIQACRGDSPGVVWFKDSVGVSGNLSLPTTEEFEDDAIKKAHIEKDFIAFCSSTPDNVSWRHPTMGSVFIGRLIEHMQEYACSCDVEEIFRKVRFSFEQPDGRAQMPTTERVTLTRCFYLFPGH
pKi: −log10 of the molar value.
Attribute: pKi

molecule: O=C(O)C[C@H](NC(=O)OCc1ccccc1)C(=O)COC(=O)CNc1ccccc1
pKi: 5.25
//
molecule: O=C(O)C[C@H](NC(=O)OCc1ccccc1)C(=O)COC(=O)Cc1coc2ccccc12
pKi: 6.10
//
molecule: O=C(O)C[C@H](NC(=O)OCc1ccccc1)C(=O)COC(=O)CCc1ccccc1
pKi: 5.35
//
molecule: O=C(O)C[C@H](NC(=O)OCc1ccccc1)C(=O)COC(=O)COc1cccc2ccccc12
pKi: 6.00
//
molecule: Cc1ccc2ccccc2c1CC(=O)OCC(=O)[C@H](CC(=O)O)NC(=O)OCc1ccccc1
pKi: 5.36
//
molecule: O=C(O)C[C@H](NC(=O)OCc1ccccc1)C(=O)COC(=O)Cc1cccc2ccccc12
pKi: 6.30
//
molecule: O=C(O)C[C@H](NC(=O)OCc1ccccc1)C(=O)COC(=O)Cc1ccc2ccccc2c1
pKi: 5.89
//
molecule: COC(=O)C[C@H]1CCC[C@H]2CC(=O)N(OCC(=O)[C@H](CC(=O)O)NC(=O)[C@H](C)NC(=O)[C@@H](NC(=O)OCc3ccccc3)C(C)C)[C@@H]12
pKi: 8.15
//
molecule: O=C(O)C[C@H](NC(=O)OCc1ccccc1)C(=O)COC(=O)Cc1csc2ccccc12
pKi: 5.92
//
molecule: CC(C)[C@H](NC(=O)OCc1ccccc1)C(=O)N[C@@H](C)C(=O)N[C@@H](CC(=O)O)C(=O)COC(=O)Cc1cccc2ccccc12
pKi: 8.52
//
molecule: Cc1cccc2cccc(CC(=O)OCC(=O)[C@H](CC(=O)O)NC(=O)OCc3ccccc3)c12
pKi: 5.07
//
molecule: CC(C)[C@H](NC(=O)OCc1ccccc1)C(=O)N[C@@H](C)C(=O)N[C@@H](CC(=O)O)C(=O)CON1C(=O)C[C@@H]2CCCC[C@@H]21
pKi: 9.00
//
molecule: O=C(O)C[C@H](NC(=O)OCc1ccccc1)C(=O)COC(=O)Cc1ccccc1
pKi: 5.08
//
molecule: O=C(O)C[C@H](NC(=O)OCc1ccccc1)C(=O)COC(=O)CCc1ccc2ccccc2c1
pKi: 5.22
//
molecule: O=C(O)C[C@H](NC(=O)OCc1ccccc1)C(=O)COC(=O)Cc1cccc2scnc12
pKi: 5.59
//
molecule: O=C(O)C[C@H](NC(=O)OCc1ccccc1)C(=O)CONC(=O)Cc1ccccc1
pKi: 4.18
//
molecule: O=C(O)C[C@H](NC(=O)OCc1ccccc1)C(=O)COC(=O)COc1ccccc1
pKi: 5.77
